System: DU-145 prostate
test.name: NCI-60 one-dose screen, 48 h (100 = growth as untreated, 0 = no growth, -100 = all killed)
assay.conditions: 10 µM unless noted
The panel holds about 83,000 compounds, 20% with a hit somewhere; the sample as a whole holds those more often.
property.measured: growth (%)
Your answer should be a plain number; it is taken to be in %.

Req: So what does the record say about growth for CCCC(CCC)NCC(O)c1cc(-c2ccc(C(F)(F)F)cc2)nc(C(F)(F)F)c1 (stereo not drawn) ?
Resp: -26.2

Req: So what does the record say about growth for Cc1nc2ccc(Nc3nc(Cl)nc(N4CCOCC4)n3)cc2n1Cc1ccccc1 ?
Resp: 94.2

Req: So what does the record say about growth for CCOC(=O)C(=CNc1ccccc1Cl)C(=O)OCC ?
Resp: 107

Req: So what does the record say about growth for Nc1c(C(=O)c2ccc(Br)cc2)sc2nc3c(cc12)CCCC3 ?
Resp: 92.4

Req: So what does the record say about growth for CCOC(=O)c1ccc(NC(=O)NC2=NCCS2)cc1 ?
Resp: 0.751

Req: So what does the record say about growth for CN1CCN(Cc2ccc(NC(=O)c3cncc(C#Cc4ccc(N)nc4)c3)cc2C(F)(F)F)CC1 ?
Resp: 21.4

Req: So what does the record say about growth for COc1cc(Cn2c(-c3ccccc3)cc3c2-c2oncc2CC3)cc(OC)c1OC ?
Resp: -21.1

Req: So what does the record say about growth for O=c1cc(N2CCOCC2)oc2c(-c3ccc4c(c3)OCCO4)csc12 ?
Resp: 22.8

Values were extracted from PubChem BioAssay (NCI).
